Experimental Target: RNA polymerase core enzyme;chimera sigma32-38 (E. coli;E. coli) (UniProt P0A7Z4+P0A8V2+P0A8T7+P0A800+P0AGB3)
Assay Notes: fluorescence polarization
Experimental Context: apparent Kd; FP: 10 mM Tris-HCl pH 7.7, 100 mM NaCl, 1 mM DTT, 1% glycerol, 0.025% Tween-20, 5 nM DNA, 10-320 nM holoenzyme, room temperature, 5 min; stopped-flow: 10 mM …
Metric: pKd
Note on pKd: it is the negative log10 of concentration, concentration in mol/L.

Note to self: pKd recorded for CCTTGAAGACGTGGTTTACGACCCCATTTAGTAG / GGGGTCGTAAACCACGTCTTCAAGG [long promoter DNA, -35 to -10 bubble] was 8.08
